Test system: Klebsiella pneumoniae
method_summary: Antimicrobial activity against Klebsiella pneumoniae ATCC 13883 assessed as bacterial growth inhibition incubated for 20 hrs by broth microdilution method
Assay type: functional
Positions of bridges follow the written chain, without caps; N, C: chain ends. Non-standard residues stand in square brackets, D forms with d. Residues, ends and D or L forms follow the SMILES beside them. *: point of attachment. Benzoyl(4-Ph) = O=C(c1ccc(-c2ccccc2)cc1)*; d(hPhe) = N[C@H](CCc1ccccc1)C(=O)O; d(hLeu) = CC(C)CC[C@@H](N)C(=O)O; dAoc(2) = CCCCCC[C@@H](N)C(=O)O; Octanoyl = CCCCCCCC(=O)*; Dab = NCC[C@H](N)C(=O)O
molecules and their reported log10(MIC)
Recall that a logarithmic scale is used here: each number is log10 of MIC in µg/mL.

CCCCCCCC(=O)N[C@@H](CCN)C(=O)N[C@H](C(=O)N[C@@H](CCN)C(=O)N[C@H]1CCNC(=O)[C@H]([C@@H](C)O)NC(=O)[C@H](CCN)NC(=O)[C@H](CCN)NC(=O)[C@H](Cc2ccccc2)NC(=O)[C@@H](CCC(C)C)NC(=O)[C@H](CCN)NC1=O)[C@@H](C)O (Octanoyl-[Dab]T[Dab][Dab][Dab][d(hLeu)]F[Dab][Dab]T; lactam 4-C); -0.30

Look at this molecule and give its reported log10(MIC). CCCCCCCC(=O)N[C@@H](CCN)C(=O)N[C@H](C(=O)N[C@@H](CCN)C(=O)N[C@H]1CCNC(=O)[C@H]([C@@H](C)O)NC(=O)[C@H](CCN)NC(=O)[C@H](CCN)NC(=O)[C@H](Cc2ccccc2)NC(=O)[C@@H](CCc2ccccc2)NC(=O)[C@H](CCN)NC1=O)[C@@H](C)O (Octanoyl-[Dab]T[Dab][Dab][Dab][d(hPhe)]F[Dab][Dab]T; lactam 4-C) 0.30

Could you share which log10(MIC) value was measured for CC(=O)N[C@H](Cc1c(F)c(F)c(F)c(F)c1F)C(=O)N[C@@H](CCN)C(=O)N[C@H](C(=O)N[C@@H](CCN)C(=O)N[C@H]1CCNC(=O)[C@H]([C@@H](C)O)NC(=O)[C@H](CCN)NC(=O)[C@H](CCN)NC(=O)[C@H](CC(C)C)NC(=O)[C@@H](Cc2ccccc2)NC(=O)[C@@H](CCN)NC1=O)[C@H](C)O ? 0.90

Data request, read-out log10(MIC), for CC(=O)N[C@H](Cc1ccc(C(F)(F)F)cc1)C(=O)N[C@@H](CCN)C(=O)N[C@H](C(=O)N[C@@H](CCN)C(=O)N[C@H]1CCNC(=O)[C@H]([C@@H](C)O)NC(=O)[C@H](CCN)NC(=O)[C@H](CCN)NC(=O)[C@H](CC(C)C)NC(=O)[C@@H](Cc2ccccc2)NC(=O)[C@@H](CCN)NC1=O)[C@H](C)O 0.90

GET /values?readout=log10(MIC)&item= CC[C@H](C)[C@@H]1NC(=O)[C@@H](CC(C)C)NC(=O)[C@H](CCN)NC(=O)[C@@H](NC(=O)[C@@H](CO)NC(=O)[C@@H](NC(=O)[C@H](CCN)NC(=O)c2ccc(-c3ccccc3)cc2)[C@@H](C)O)CCNC(=O)[C@H](CC(C)C)NC(=O)[C@H](CCN)NC(=O)[C@H](CCN)NC1=O ({Benzoyl(4-Ph)}-[Dab]T[dS][Dab][Dab][dL]I[Dab][Dab]L; lactam 4-C) 0.30

// returns reported log10(MIC) for input CCCCCCCC(=O)N[C@@H](CCN)C(=O)N[C@H](C(=O)N[C@@H](CCN)C(=O)N[C@H]1CCNC(=O)[C@H]([C@@H](C)O)NC(=O)[C@H](CCN)NC(=O)[C@H](CCN)NC(=O)[C@H](Cc2ccccc2)NC(=O)[C@@H](CCCCCC)NC(=O)[C@H](CCN)NC1=O)[C@@H](C)O (Octanoyl-[Dab]T[Dab][Dab][Dab][dAoc(2)]F[Dab][Dab]T; lactam 4-C) 0.00
